In this section, each of the molecules is paired with its reported melting point.
assay.metric: melting point

O=c1c(O)c(-c2ccc(O)cc2O)oc2cc(O)cc(O)c12 = 304 °C
O=C1c2ccccc2C(=O)c2c(Br)cccc21 = 186 °C
C=CCC#N = -87 °C
CC(CNC1CCCCC1)OC(=O)c1ccccc1.Cl (centres undefined) = 178 °C
CC1C2Cc3ccc(O)cc3C1(C)CCN2CCc1ccccc1 (centres undefined) = 181 °C
CCc1ccc(O)cc1O = 98.5 °C
COc1ccc2c(OC(C)=O)c(OC)c(OC)c(OC(C)=O)c2c1 = 77.5 °C
C[C@H](Oc1ccccc1)C(=O)O = 118 °C
S=C=Nc1ccc(Br)cc1 = 60.5 °C
CCCCCCCCCC(=O)O = 31.9 °C
CC(=O)c1cc(Cl)ccc1Cl = 12 °C
CN(C)N=Nc1nc[nH]c1C(N)=O = 205 °C
Cc1ccnc(N)n1 = 160 °C
c1ccc2c(N=Nc3cccc4ccccc34)cccc2c1 = 190 °C
CCCCC(C#N)(Cn1ccnc1)c1ccccc1 (centres undefined) = 161 °C
CC=Cc1ccccc1O = -6 °C
CC(C)CCC(=O)O = -33 °C
CSSC = -85 °C
O=[N+]([O-])c1cc([N+](=O)[O-])c2ccccc2c1 = 148 °C
FC(F)(F)CCCl = -106 °C
Cc1cc(O)c2c(c1)C(=O)c1cc(O)cc(O)c1C2=O = 257 °C
O=C(O)c1cccc(Oc2ccccc2)c1 = 150 °C
COc1cc([C@@H]2c3cc4c(cc3[C@H](O)[C@H]3COC(=O)[C@@H]23)OCO4)cc(OC)c1OC = 206 °C
O=C(O)CNC(CO)(CO)CO = 187 °C
Clc1ccc(C(c2ccccc2Cl)C(Cl)Cl)cc1 (centres undefined) = 77 °C
Cc1ccnc2ccccc12 = 9.5 °C
CC(C)CC(C)C = -120 °C
Cn1ccc(=O)n(C)c1=O = 120 °C
CCCCCCCCCCCCCC(=O)CCCCCCCCCCCCC = 77.5 °C
Nc1c(Cl)cc([N+](=O)[O-])cc1Cl = 191 °C
N[C@@H](Cc1cc(I)c(Oc2cc(I)c(O)c(I)c2)c(I)c1)C(=O)O = 236 °C
O=C(Cl)c1ccc(Cl)c(Cl)c1 = 25 °C
Cc1cnc(C)[nH]1 = 92 °C
FC1(F)OC1(F)F = -118 °C
CC(=O)NCCO = 16 °C
CCCCCCCCCCCCN1CCCCCC1=O = -7 °C
COCCOCCOCCOC = -45 °C
Cc1cc2ccccc2[nH]1 = 61 °C
CCCCCCCCCCCCCCCC(=O)OC = 30 °C
S=C(SN1CCOCC1)N1CCOCC1 = 139 °C
COc1ccc(-c2ccccc2)cc1NNC(=O)OC(C)C = 122 °C
CCCCCC(O)c1ccc(O)c(O)c1 (centres undefined) = 109 °C
CN1CCN(CCCN2c3ccccc3Sc3ccccc32)CC1 = 52 °C
CCOc1ccc([N+](=O)[O-])cc1 = 60 °C

====

In this section, each of the compounds is paired with its reported boiling point.
assay.metric: boiling point

CCCCCC(=O)OC = 150 °C
CCOc1ccc2ccccc2c1 = 282 °C
CC(=O)Nc1cccc(C)c1 = 303 °C
CCCCCCCCO = 195 °C
NC(=O)CCl = 225 °C
CC(C)C(=NO)C(C)C = 181 °C
COc1ccccc1C = 171 °C
CCCCCCCCCCCCCCCCC = 302 °C
C=CC/C=C/C = 65 °C
C=CC(O)CC (configuration not stated) = 115 °C
O=[N+]([O-])c1cc(Cl)c(Cl)cc1Cl = 288 °C
CC1(C)CC(=O)CC(C)(C)N1 = 205 °C

====

melting point of 100 °C or higher: Fulfilled. Under 100 °C: Not fulfilled.

C/C=C(\C)C(=O)O = Not fulfilled
CC(=O)[C@@]1(O)CC[C@H]2[C@@H]3C[C@H](C)C4=CC(=O)C=C[C@]4(C)[C@@]3(F)[C@@H](O)C[C@@]21C = Fulfilled
C[C@H](N)[C@H](O)c1cccc(O)c1 = Fulfilled
COC1(C)CC(c2ccccc2)c2c(c3ccccc3oc2=O)O1 (stereo not given) = Fulfilled
OCc1ccncc1 = Not fulfilled

====

In this section, each of the molecules is paired with its reported log10 vapour pressure (mmHg).
assay.metric: log10 vapour pressure (mmHg)

CC(C)(N)CO = 0
N#CCc1ccccc1 = -1.05
C=CBr = 3.01
CCCCCCCCCCN = -1
Cc1cc(Cl)cc2c1C(=O)/C(=C1/Sc3cc(Cl)cc(C)c3C1=O)S2 = -13.5
COc1ccc(Br)cc1 = -0.692
CC1(O)CCCCC1 = 0.0531
Clc1cc(Cl)cc(Cl)c1 = -0.62

====

In this section, each of the compounds is paired with its reported melting point.
assay.metric: melting point

COC(=O)c1ccc(O)c(N)c1 = 143 °C
Nc1ccc(Sc2ccc(N)cc2)cc1 = 108 °C
CCCCCCCCCCCCCCCCCCCCCCCCCCCCCCCCCCC = 75 °C
O=[N+]([O-])Nc1ccccc1 = 47.3 °C
N#CCc1ccc(Br)cc1 = 48 °C
N#Cc1ccccc1CCl = 61 °C
COP(=O)(OC)OC=C(Cl)Cl = -60 °C
Cc1nc2ccccc2[nH]1 = 176 °C
Cc1cc(C)nc(N)n1 = 152 °C
CN(C)CCc1c[nH]c2cccc(O)c12 = 174 °C
N#Cc1c[nH]cc1-c1cccc2c1OC(F)(F)O2 = 200 °C
COC(=O)c1ccccc1S(=O)(=O)NC(=O)N(C)c1nc(C)nc(OC)n1 = 141 °C
CCCCCCCCCCCBr = -9 °C
CCC(=O)C(=O)O = 33 °C
Cc1ccccc1Cc1ccccc1 = 6.6 °C
OC[C@@H]1CCCCN1 = 69 °C
N#CCC(N)=O = 122 °C
c1ccc2c(c1)ccc1nc3ccc4ccccc4c3cc12 = 216 °C
CN(CC(=O)O)C(=O)COC(=O)c1ccccc1 = 106 °C
CC[Si](Cl)(Cl)Cl = -106 °C
CC(=O)OC(OC(C)=O)c1ccc([N+](=O)[O-])o1 = 91 °C
CC(C)(C)N=C=O = 85.5 °C
O=C(O)C(F)(F)F = -15.2 °C
CC(=O)c1cccc(C#N)c1 = 99 °C
CCCc1ccc(C)cc1 = -63.6 °C
Cc1c(O)c(Br)c(Br)c(Br)c1Br = 208 °C
COc1ccc(/C=C/c2cc(OC)cc(=O)o2)cc1 = 156 °C
NC(=O)Nc1ccc2ccccc2c1 = 219 °C
CCCCCC1CCCC1 = -83 °C
FC(F)(F)C(Cl)Cl = -107 °C
CC(/C=C/C=C(C)/C=C/[C@@]12O[C@]1(C)C[C@@H](O)CC2(C)C)=C\C=C\C=C(C)\C=C\C=C(C)\C=C\[C@@]12O[C@]1(C)C[C@@H](O)CC2(C)C = 208 °C
O=C(O)CCCCCCC[C@H](O)[C@H](O)CCCCCCO = 100 °C
Brc1cn[nH]c1 = 94.5 °C
CCCCCCCCCCCCCCCCCCCCCCCCCCCC(=O)O = 90.9 °C
O=C1c2ccccc2-c2ccc3c4ccc5c6c(ccc(c7ccc1c2c73)c64)C(=O)c1ccccc1-5 = 492 °C
CCOC(=O)CC[C@H](N)C(=O)OCC.Cl = 109 °C
CCN(CC)CCNc1ccc(C)c2sc3ccccc3c(=O)c12.Cl = 196 °C
O=C(O)CCCCCCCCCCC(=O)O = 128 °C
O=C(O)CCCCCCCCCCCCC(=O)O = 127 °C
C[C@H]1CC[C@@]2(O)C(C)(C)[C@@H]3CC[C@@]2(C)[C@H]1C3 = 56 °C
C[C@]12CC[C@@H]3c4ccc(OC(=O)c5ccccc5)cc4CC[C@H]3[C@@H]1CC[C@@H]2O = 196 °C
Cc1c([C@H](C)[C@@H]2NC[C@@H](C)C[C@H]2O)ccc2c1C[C@H]1[C@H]2CC=C2C[C@@H](O)CC[C@@]21C = 206 °C
CC1CC1C (stereo not drawn) = -145 °C

====

assay.metric: boiling point (°C)

CC=CCCCCCCCCO = 248
CCNC = 36.5
NCCNCCNCCN = 266
CC(=O)C(C)=O = 88

====

In this section, each of the compounds is paired with its reported melting point.
assay.metric: melting point (°C)

COC(=O)C1(S(=O)(=O)c2ccc(Cl)cc2)CC1 = 116
Cc1cc(=O)n(-c2ccccc2)[nH]1 = 128
OOC1CCCCC1 = -20

====

Labelling field: enter yes (1) if recorded melting point is less than 100 °C. Enter no (0) if it equals or exceeds that cut-off.

O=C(O)CCC(=O)OOC(=O)CCC(=O)O = no (0)
O=C(Cl)c1cc([N+](=O)[O-])cc([N+](=O)[O-])c1 = yes (1)
CCCCCCCCCCCCCCCCCCCCC = yes (1)
Cc1ccc(-c2ccccc2)cc1 = yes (1)
Clc1ccc(Cn2cncn2)cc1Cl = yes (1)
C[C@]12CC[C@@H]3c4ccc(O)cc4CC[C@H]3[C@@H]1CCC2=O = no (0)
CN(C)C(=O)Oc1ccc[n+](C)c1.[Br-] = no (0)
